Origin of values: paper PMC8579695

target: RsgA (Staphylococcus aureus, UniProt P67682); assay: DRaCALA binding of 32P-labeled nucleotides to 6×His-tagged RsgA; conditions: mean ± SEM; Bmax values indicate the fraction bound
Sequence (P67682 whole entry): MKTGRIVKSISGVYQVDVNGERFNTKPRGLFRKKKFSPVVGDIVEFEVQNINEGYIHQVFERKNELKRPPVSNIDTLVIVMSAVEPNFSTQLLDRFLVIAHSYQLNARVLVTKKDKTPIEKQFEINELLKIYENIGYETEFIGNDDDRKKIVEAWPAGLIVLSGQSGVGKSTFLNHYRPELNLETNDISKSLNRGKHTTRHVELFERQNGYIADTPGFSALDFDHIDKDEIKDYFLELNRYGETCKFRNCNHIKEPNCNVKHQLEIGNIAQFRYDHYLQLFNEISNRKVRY

{"columns": ["compound", "Bmax, RsgA"],
 "data": [
  ["Nc1nc2c(ncn2[C@@H]2O[C@H](COP(=O)(O)OP(=O)(O)OP(=O)(O)O)[C@@H](OP(=O)(O)OP(=O)(O)O)[C@H]2O)c(=O)[nH]1 [pppGpp]", 0.4],
  ["Nc1nc2c(ncn2[C@@H]2O[C@H](COP(=O)(O)OP(=O)(O)O)[C@@H](O)[C@H]2O)c(=O)[nH]1 [GDP]", 0.9],
  ["Nc1nc2c(ncn2[C@@H]2O[C@H](COP(=O)(O)OP(=O)(O)OP(=O)(O)O)[C@@H](O)[C@H]2O)c(=O)[nH]1 [GTP]", 0.8],
  ["Nc1nc2c(ncn2[C@@H]2O[C@H](COP(=O)(O)OP(=O)(O)O)[C@@H](OP(=O)(O)OP(=O)(O)O)[C@H]2O)c(=O)[nH]1 [ppGpp]", 0.9]
]}

----------
target: RsgA (Staphylococcus aureus, UniProt P67682); experiment: DRaCALA binding of 32P-labeled nucleotides to 6×His-tagged RsgA

{"columns": ["mol", "Kd, µM"],
 "data": [
  ["Nc1nc2c(ncn2[C@@H]2O[C@H](COP(=O)(O)OP(=O)(O)O)[C@@H](O)[C@H]2O)c(=O)[nH]1", 1.8],
  ["Nc1nc2c(ncn2[C@@H]2O[C@H](COP(=O)(O)OP(=O)(O)OP(=O)(O)O)[C@@H](O)[C@H]2O)c(=O)[nH]1", 3.6],
  ["Nc1nc2c(ncn2[C@@H]2O[C@H](COP(=O)(O)OP(=O)(O)OP(=O)(O)O)[C@@H](OP(=O)(O)OP(=O)(O)O)[C@H]2O)c(=O)[nH]1", 10.1]
]}

----------
target: UniProt Q2FYY9; assay: DRaCALA binding of 32P-labeled nucleotides to 6×His-tagged HflX; details: mean ± SEM; 32P-labeled nucleotide, 6×His-tagged protein; read-out: Kd, HflX
Sequence (Q2FYY9 entry or part of it): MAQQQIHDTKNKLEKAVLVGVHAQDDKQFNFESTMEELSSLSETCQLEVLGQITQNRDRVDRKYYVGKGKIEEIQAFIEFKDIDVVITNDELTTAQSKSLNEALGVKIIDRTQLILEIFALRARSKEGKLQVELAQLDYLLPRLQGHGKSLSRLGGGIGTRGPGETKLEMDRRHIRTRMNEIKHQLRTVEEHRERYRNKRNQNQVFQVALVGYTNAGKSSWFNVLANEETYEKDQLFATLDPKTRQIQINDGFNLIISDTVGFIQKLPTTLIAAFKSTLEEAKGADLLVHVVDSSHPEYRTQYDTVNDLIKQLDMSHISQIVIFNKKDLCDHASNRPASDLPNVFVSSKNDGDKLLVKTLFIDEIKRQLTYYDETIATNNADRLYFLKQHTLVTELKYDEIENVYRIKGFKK
pKd: −log10 of the molar value.
measured_parameter: pKd

{"columns": ["mol", "target", "measured_parameter", "value"],
 "data": [
  ["Nc1nc2c(ncn2[C@@H]2O[C@H](COP(=O)(O)OP(=O)(O)O)[C@@H](OP(=O)(O)OP(=O)(O)O)[C@H]2O)c(=O)[nH]1", "UniProt Q2FYY9", "pKd", 5.47]
]}

----------
target: UniProt Q2FYY9; assay: DRaCALA binding of 32P-labeled nucleotides to 6×His-tagged HflX; conditions: mean ± SEM; Bmax values indicate the fraction bound

{"columns": ["compound", "target", "Bmax, HflX"],
 "data": [
  ["Nc1nc2c(ncn2[C@@H]2O[C@H](COP(=O)(O)OP(=O)(O)OP(=O)(O)O)[C@@H](OP(=O)(O)OP(=O)(O)O)[C@H]2O)c(=O)[nH]1 [pppGpp]", "UniProt Q2FYY9", 0.5],
  ["Nc1nc2c(ncn2[C@@H]2O[C@H](COP(=O)(O)OP(=O)(O)O)[C@@H](O)[C@H]2O)c(=O)[nH]1 [GDP]", "UniProt Q2FYY9", 0.7],
  ["Nc1nc2c(ncn2[C@@H]2O[C@H](COP(=O)(O)OP(=O)(O)OP(=O)(O)O)[C@@H](O)[C@H]2O)c(=O)[nH]1 [GTP]", "UniProt Q2FYY9", 0.7],
  ["Nc1nc2c(ncn2[C@@H]2O[C@H](COP(=O)(O)OP(=O)(O)O)[C@@H](OP(=O)(O)OP(=O)(O)O)[C@H]2O)c(=O)[nH]1 [ppGpp]", "UniProt Q2FYY9", 0.6]
]}
